TARGET_OR_SYSTEM: P38α (Homo sapiens)
Construct: purchased Signal Chem (Richmond, BC, Canada)
Sequence (Q16539 whole entry): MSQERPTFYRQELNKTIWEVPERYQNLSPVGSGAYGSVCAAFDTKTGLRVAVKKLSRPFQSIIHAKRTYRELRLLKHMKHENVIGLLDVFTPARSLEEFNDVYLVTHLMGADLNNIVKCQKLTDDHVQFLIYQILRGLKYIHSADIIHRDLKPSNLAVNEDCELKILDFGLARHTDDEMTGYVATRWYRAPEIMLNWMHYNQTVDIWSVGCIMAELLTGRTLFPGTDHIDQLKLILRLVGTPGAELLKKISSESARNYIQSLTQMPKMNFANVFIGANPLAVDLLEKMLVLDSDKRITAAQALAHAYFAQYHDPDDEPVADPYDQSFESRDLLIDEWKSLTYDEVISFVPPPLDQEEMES
METHOD_DESCRIPTION: In-vitro kinase profiling, radioisotope screening assay (Signal Chem)
Assay type: biochemical
TEST_SETTINGS: 5 μM compound, 50 μM ATP, vs vehicle control; negative = inhibition
molecules and their reported % activity change
PARAMETER: % activity change (%)

{"MOLECULE": "Oc1cc(O)c(Cc2c(O)cc(O)cc2O)c(O)c1", "UNIT_OF_MEASURE": "%", "REPORTED": "−5"}
{"MOLECULE": "CC(=O)c1c(O)c(C)c(O)c(Cc2c(O)c3c(c4c2OC(c2ccccc2)CC4=O)OC(C)(C)C=C3)c1O (stereo not shown)", "UNIT_OF_MEASURE": "%", "REPORTED": "−1"}
{"MOLECULE": "CC(=O)c1c(O)c(C)c(O)c(Cc2c(O)c3c(c(C(=O)/C=C/c4ccccc4)c2O)OC(C)(C)C=C3)c1O", "UNIT_OF_MEASURE": "%", "REPORTED": "−1"}
{"MOLECULE": "CC1(C)C=Cc2c(O)cc(O)c(C(=O)/C=C/c3ccccc3)c2O1", "UNIT_OF_MEASURE": "%", "REPORTED": "−4"}
